These measurements were taken from paper PMC10397247.

- measured_on: T1, P2-AA-1HAA-T
- T1 chain: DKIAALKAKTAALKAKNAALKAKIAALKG
- test: two-hybrid library CCmax;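 further: natural log of median RNA to DNA barcode read ratio; higher means stronger binding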
- condition_set: mean of both orientations
Lab note: compare interaction score against 2. Equal or greater, write criterion met. Smaller, write criterion not met.

- binder: "DEIAALEAELAALEAENAALEAEIAALEG [P1-AA-1HAA-L]"
  cat: "criterion not met"
- binder: "DEIAALEAEEAALEAENAALEAEIAALEG [P1-AA-1HAA-E]"
  cat: "criterion not met"
- binder: "DEIAALEAEVAALEAENAALEAEIAALEG [P1-AA-1HAA-V]"
  cat: "criterion met"
- binder: "DEIAALEAESAALEAENAALEAEIAALEG [P1-AA-1HAA-S]"
  cat: "criterion not met"
- binder: "DEIAALEAENAALEAENAALEAEIAALEG [P1-AA]"
  cat: "criterion not met"
